# target or system: stabilized p53-Y220C DBD (residues 94–312) (Homo sapiens, UniProt P04637, M133L/N239Y/N268D/V203A/Y220C)
# Construct: Stabilized p53-Y220C DBD (residues 94–312) was expressed and purified; 6xHis / lipoyl domain / TEV protease cleavage site (N, cleaved yes)
# test summary: Isothermal titration calorimetry (ITC)
# condition info: ITC
pKd: −log10 of the molar value.
Rule: pKd of 4 or more gives true (1); anything lower gives false (0).

Record excerpt, results attached:
# smiles record, class assignment
records = [
    ("CCN(CC)c1nc2c(C(=O)O)c(O)c(I)c(-n3cccc3)c2s1", "true (1)"),
    ("CCOc1cc(C(=O)O)c(O)c(I)c1-n1cccc1", "true (1)"),
    ("C=CCOc1cc(C(=O)O)c(O)c(I)c1-n1cccc1", "true (1)"),
    ("O=C(O)c1cc(OCCO)c(-n2cccc2)c(I)c1O", "false (0)"),
    ("O=C(O)c1cc(-c2ccccc2)c(-n2cccc2)c(I)c1O", "false (0)"),
    ("CN(C)Cc1cc(I)c(-n2cccc2)c(I)c1O", "true (1)"),
    ("O=C(NO)c1cc(I)c(-n2cccc2)c(I)c1O", "false (0)"),
    ("CN1CCN(C(=O)c2cc(I)c(-n3cccc3)c(I)c2O)CC1", "true (1)"),
    ("O=c1[nH][nH]c2c(I)c(-n3cccc3)c(I)cc12", "true (1)"),
    ("CC(C)COc1cc(C(=O)O)c(O)c(I)c1-n1cccc1", "true (1)"),
]

Here is the next item to consider.
Please indicate if the recorded pKd for CNC(=O)c1cc(I)c(-n2cccc2)c(I)c1O meets or exceeds 4.
true (1)
